Measured Population Membrane Permeable-Phenotype (%) of individual entries
Test system: U2OS
Assay: Multiplex assay against U2OS
Format: toxicity, cell-based
Conditions: human, 12 h, 1 µM, compound concentration 1 uM, replicate 1
MEASURED METRIC: Population Membrane Permeable-Phenotype (%)

• C[C@@H](Oc1cc(-n2cnc3ccc(CN4CCN(C)CC4)cc32)sc1C(N)=O)c1ccccc1C(F)(F)F = 7
• Cc1c(P(=S)(c2ccccc2)c2ccccc2)n2ccccc2[n+]1C/C=C/c1ccccc1.[Br-] = 13
• CC(C)c1cc(Nc2nc(N3CCC[C@H](N)C3)ncc2C(N)=O)cc(C(C)C)n1 = 22
• Cc1c(Nc2ccc(S(=O)(=O)N3CCN(C)CC3)cc2F)nc2ccc(-c3cnn(C4CC4)c3)cn2c1=O = 5
• CCCc1cc(C)[nH]c(=O)c1CNC(=O)c1cc(-c2ccc(N3CCN(C(C)C)CC3)nc2)cc2c1cnn2C(C)C = 13
• Cc1ccc(NC(=O)Nc2cc(C(F)(F)F)ccc2F)cc1Nc1ccc2c(c1)NC(=O)/C2=C\c1ccc[nH]1 = 87
• CC[C@@H]1C(=O)N(C)c2cnc(Nc3ccc(C(=O)NC4CCN(C)CC4)cc3OC)nc2N1C1CCCC1 = 40
• C=CC(=O)Nc1cc(-n2c(=O)ccc3cnc4ccc(-c5ccc(NS(C)(=O)=O)cc5)cc4c32)ccc1C = 7
• CC(Cc1ccc(O)c(O)c1)C(C)Cc1ccc(O)c(O)c1 (stereo not given) [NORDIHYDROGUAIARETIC ACID] = 3
• Cc1ccc(S(=O)(=O)NC2c3ccccc3Oc3ccccc32)cc1 = 6
• CC(/C=C1\SC(=S)N(CCCC(=O)Nc2ccc(C(=O)O)c(O)c2)C1=O)=C\c1ccccc1 = 7
• CCCCCNC(=N)N/N=C/c1c[nH]c2ccc(OC)cc12.O=C(O)/C=C\C(=O)O [TEGASEROD MALEATE] = 4
• CN1C(=O)[C@@H](NC(=O)c2cc3ccccc3[nH]2)N=C(c2ccccc2)c2ccccc21 [DEVAZEPIDE] = 3
• N#CCNC(=O)c1ccc(-c2ccnc(Nc3ccc(N4CCOCC4)cc3)n2)cc1 = 9
• CCCCN(CC)c1nc(C)nc2c1c(C)cn2-c1c(C)cc(C)cc1C.Cl = 3
